# metabolised at 24 h per record follows
assay: Incubation with fresh baboon plasma; type: in vitro ADME; conditions: 0.5 ml fresh baboon plasma, 37° C., read-out: percent hydrolyzed in plasma
Your answer should be a number followed by the unit of measure.

C[C@]12C=CC(=O)C=C1CC[C@@H]1[C@@H]2C(=O)C[C@@]2(C)[C@H]1CC[C@]2(O)C(=O)CO[P+]([O-])(O)OC[C@H]1O[C@@H](n2ccc(N)nc2=O)[C@@H](O)[C@@H]1O (some centres unmarked) = 15%

Query molecule follows.
// lookup metabolised at 24 h for C[C@]12C=CC(=O)C=C1CC[C@@H]1[C@@H]2[C@@H](O)C[C@@]2(C)[C@H]1CC[C@]2(O)C(=O)CO[P+]([O-])(O)OC[C@H]1O[C@@H](n2ccc(N)nc2=O)[C@@H](O)[C@@H]1O (some centres unmarked) 39%

###

system: i.p. implanted L-1210 leukemia; assay: Antitumor activity against i.p. implanted L-1210 leukemia in mice; format: in vivo; settings: Mus musculus, L1210, ip, read-out: Percent T/C (mean survival days treated/control × 100), 25 mg/kg/day × 5 i.p.
# response vs control in vivo at 25 mg/kg per record follows

// lookup response vs control in vivo at 25 mg/kg for C[C@]12C=CC(=O)C=C1CC[C@@H]1[C@@H]2[C@@H](O)C[C@@]2(C)[C@H]1CC[C@]2(O)C(=O)CO [Prednisolone, reference compound] 133%

Check C[C@]12C=CC(=O)C=C1CC[C@@H]1[C@@H]2C(=O)C[C@@]2(C)[C@H]1CC[C@]2(O)C(=O)CO[P+]([O-])(O)OC[C@H]1O[C@@H](n2ccc(N)nc2=O)[C@@H](O)[C@@H]1O (stereo partly shown) too. 154%

Check Nc1ccn([C@@H]2O[C@H](CO)[C@@H](O)[C@@H]2O)c(=O)n1 [Ara-C, 1-β-D-Arabinofuranosylcytosine, reference compound] too. 128%

Check C[C@]12C=CC(=O)C=C1CC[C@@H]1[C@@H]2[C@@H](O)C[C@@]2(C)[C@H]1CC[C@]2(O)C(=O)CO[P+]([O-])(O)OC[C@H]1O[C@@H](n2ccc(N)nc2=O)[C@@H](O)[C@@H]1O (stereo partly shown) too. 154%

###

system: i.p. implanted L-1210 leukemia; assay: Antitumor activity against i.p. implanted L-1210 leukemia in mice; assay type: in vivo; settings: Mus musculus, L1210, ip, read-out: Percent T/C (mean survival days treated/control × 100), 50 mg/kg/day × 5 i.p.
# response vs control in vivo at 50 mg/kg per record follows
// note: answer is a bare numeric in %

// known answers, use as guide
Nc1ccn([C@@H]2O[C@H](COP(=O)(O)O)[C@@H](O)[C@@H]2O)c(=O)n1 [Ara-CMP, reference compound] = 104
C[C@]12CCC(=O)C=C1CC[C@@H]1[C@@H]2[C@@H](O)C[C@@]2(C)[C@H]1CC[C@]2(O)C(=O)COP(=O)(O)OC[C@H]1O[C@@H](n2ccc(N)nc2=O)[C@@H](O)[C@@H]1O [Cortisol-p-ara-C (V)] = 287
C[C@]12CCC(=O)C=C1CC[C@@H]1[C@@H]2C(=O)C[C@@]2(C)[C@H]1CC[C@]2(O)C(=O)COP(=O)(O)OC[C@H]1O[C@@H](n2ccc(N)nc2=O)[C@@H](O)[C@@H]1O [Cortisone-p-ara-C (VI)] = 224

Notebook: pull reported response vs control in vivo at 50 mg/kg for i.p. implanted L-1210 leukemia, entry C[C@]12C=CC(=O)C=C1CC[C@@H]1[C@@H]2[C@@H](O)C[C@@]2(C)[C@H]1CC[C@]2(O)C(=O)CO[P+]([O-])(O)OC[C@H]1O[C@@H](n2ccc(N)nc2=O)[C@@H](O)[C@@H]1O (some centres unmarked) [Pred-p-ara-C (I)] 201

Check Nc1ccn([C@@H]2O[C@H](CO)[C@@H](O)[C@@H]2O)c(=O)n1 [Ara-C, 1-β-D-Arabinofuranosylcytosine, reference compound] too. 110
